biological target: T1, human PD-1 ECD/Fc fusion protein (human); assay: SPR Biacore, mAb captured, huPD-1/Fc analyte
T1 construct: also called huPD-1/Fc; HuPD-1 ECD/Fc
T1 sequence (chain, as listed by the source limits assumed): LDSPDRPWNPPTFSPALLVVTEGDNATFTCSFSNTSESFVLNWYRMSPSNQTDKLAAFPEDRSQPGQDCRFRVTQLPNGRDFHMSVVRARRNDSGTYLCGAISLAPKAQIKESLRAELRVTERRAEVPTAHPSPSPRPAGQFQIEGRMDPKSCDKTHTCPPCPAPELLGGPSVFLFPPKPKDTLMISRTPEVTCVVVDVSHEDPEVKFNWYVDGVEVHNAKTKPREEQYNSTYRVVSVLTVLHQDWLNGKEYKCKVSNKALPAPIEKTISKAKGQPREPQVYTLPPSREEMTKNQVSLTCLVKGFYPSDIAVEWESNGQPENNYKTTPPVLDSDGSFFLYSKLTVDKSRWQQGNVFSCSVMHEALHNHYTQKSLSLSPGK
Test readout: kon (M⁻¹ s⁻¹)
Form entry: value (M⁻¹ s⁻¹) — number only.

binder="mAb718 (antibody, V domains shown, murine hybridoma anti-PD-1 mAb) VH: QVQLQQSGAELVRPGASVTLSCKASGYTFTDYEMHWAKQTPVHGLEWIGVIEPESGGTVYNQKFKGKAKLTADKSSRTAYMELRSLTSEDSAVYYCTREGFNSDHYFDYWGQGTTLTVSS VL: DVLMTQTPLSLPVSLGDQASISCRSSQNIVHSNGNTYLEWYLQKPGQSPKLLIYKVFNRFSGVPDRFSGSGSGTDFTLKISRVEAEDLGVYYCFQGSHVPYTFGGGTKLEIK" test_readout=kon readout_number=58400
binder="mAb713 (antibody, V domains shown, murine hybridoma anti-PD-1 mAb) VH: EVKLVESGGGLVKPGGSLELSCAASGFTSSDYGMHWVRQAPEKGLEWVAYISSGSYTIYYADTVKGRFTISRDNAKNTLFLQMTSLRSEDTAMYYCAKRGGSSHVNVMDYWGQGTSVTVSS VL: DIQMTQSSSYLSVSLGGRVTITCKASDHINNWLAWYQQKPGNAPRLLISGATSLETGVPSRFSGSGSGKDYTLSITSLQTEDVATYYCQQYWSPPYTFGGGTKLEIK" test_readout=kon readout_number=145000

Form field kon, entry mAb719 (antibody, V domains shown, murine hybridoma anti-PD-1 mAb) VH: EVKLVESGGGLVKPGGSLKLSCTASGFSFSSHLMSWVRQTPEKRLEWVAAISGGGADTYYPDSVKGRFTISRDNAKNTLYLQMRSLRSEDTALYYCTRQILAFDSWGQGTTLTVSS VL: DIQMNQSPSSLSVSLGDTITITCHASQNIYVWLNWYQQKPGNIPKLLIYKASNLHTGVPSRFSGGGSGTGFTLTISSLQPEDIATYYCQQGQSYPWTFGGGTKLEIK : 71500

Hello, the source for this data is patent US20210188980A1, in case you need it.
